tested on: OVCAR-5; assay: NCI tumour cell line growth inhibition, 48 h
Activity calls are given as the source filed them. No stated cut-off is given here; in the data, active = GI50 up to about 1.1 µM and inactive = higher.
Experimental Endpoint: GI50

Entry C[Si](C)(C)OC1(C#N)c2ccccc2CCCC12CCCC2 (stereo not given) : reported GI50 = ? > 100 µM (inactive)

Entry Cc1cc2ccccc2n2c1nc1ccc(O)cc12 : reported GI50 = ? > 10 µM (inactive)

Entry CC(=O)/N=C1/N(/C=C2\C(=O)Oc3ccccc3C2=O)C(=O)/C(=C/c2ccc(OC(C)=O)cc2)N1C : reported GI50 = ? > 100 µM (inactive)

Entry Oc1ccc2c(c1)CCc1c-2n(CCN2CCOCC2)c2ccc(O)cc12 : reported GI50 = ? 78.3 µM (inactive)

Entry CC1=NN(C(=O)c2ccccc2O)C(=O)/C1=C/c1cccc([N+](=O)[O-])c1 : reported GI50 = ? 10.4 µM (inactive)

Entry CCO/N=C\c1ccc2oc(-c3ccccc3)cc(=O)c2c1 : reported GI50 = ? 2.56 µM (inactive)

Entry COC(=O)C12C3C4C1C1C2C3C41C(=O)NC(C)(C)CC(=O)O (stereo not given) : reported GI50 = ? > 100 µM (inactive)

Entry C[C@]12Cc3cnc(-c4ccccc4)nc3C[C@@H]1CC[C@@H]1[C@@H]2CC[C@@]2(C)[C@H]1CC[C@]2(C)O : reported GI50 = ? 14.3 µM (inactive)

Entry S=c1[nH]c2ccc(Br)cc2c(=S)n1-c1ccccc1 : reported GI50 = ? 32.5 µM (inactive)

Entry C=C1CC(Cn2ccc(=O)[nH]c2=O)(c2ccc(OC)cc2)OC1=O (stereo not given) : reported GI50 = ? 17.5 µM (inactive)

Entry COC(=O)N1C2C(C[C@@]1(C)C(=O)OC)c1ccccc1N2S(=O)(=O)c1ccccc1 (stereo not given in full) : reported GI50 = ? > 100 µM (inactive)

Entry COc1ccc2c3c(n(Cc4ccccc4)c(=O)c2c1)-c1cc(OC)c(OC)cc1C3C (stereo not given) : reported GI50 = ? > 28.4 µM (inactive)

Entry N#CC(C#N)=C1C(=O)NC(N)=C1C#N : reported GI50 = ? > 100 µM (inactive)

Entry COc1ccc(OC)c(Cc2cnc3nc(N)nc(N)c3c2C)c1 [PIRITREXIM ISETHIONATE] : reported GI50 = ? 16.1 µM (inactive)

Entry C=C1c2[nH]c3ccccc3c2CC(C(=O)O)N1C(O)c1ccc(S(=O)(=O)O)cc1 (stereo not given) : reported GI50 = ? > 100 µM (inactive)

###

test system: SK-OV-3; test: NCI tumour cell line growth inhibition, 48 h
Activity calls are given as the source filed them. No stated cut-off is given here; in the data, active = GI50 up to about 1.1 µM and inactive = higher.
Experimental Endpoint: GI50

Entry CC(C)(C)OC(=O)N(CCCCNC(=O)C(F)(F)F)CCCNC(=O)C(F)(F)F : reported GI50 = ? > 100 µM (inactive)

Entry O=C(NCCCCCCNC(=O)c1cccc2ccccc12)c1cccc2ccccc12 : reported GI50 = ? 21.2 µM (inactive)

Entry CC12CCC(/C(=N/c3cc(C(F)(F)F)cc(C(F)(F)F)c3)C1=O)C2(C)C (stereo unspecified) : reported GI50 = ? > 100 µM (inactive)

Entry COc1cc2nc(-c3cccs3)nc(Cl)c2cc1OC : reported GI50 = ? > 100 µM (inactive)

Entry CCCN(C(=O)c1ccccc1)C(C#N)c1ccc(C(C#N)N(CCC)C(=O)c2ccccc2)cc1 (stereo unspecified) : reported GI50 = ? 22 µM (inactive)

Entry N#CC(C#N)=C1C(=O)NC(N)=C1C#N : reported GI50 = ? > 100 µM (inactive)

Entry COc1ccc(C(OCC2OC(n3cc(C)c(=O)[nH]c3=O)CC2n2cc(Cn3cc(I)c(=O)[nH]c3=O)nn2)(c2ccccc2)c2ccccc2)cc1 (stereo unspecified) : reported GI50 = ? > 100 µM (inactive)

Entry CCOC(=O)NC(=O)c1cn(CCN2CCN(C(=O)CCCCCCCCCCNc3ncnc4c3ncn4C3OC(CO)C(O)C3O)CC2)c(=O)[nH]c1=O (stereo unspecified) : reported GI50 = ? > 100 µM (inactive)

Entry COc1c(-c2nc3ccc(N4CCN(C)CC4)nc3[nH]2)cc(OC)c2[nH]c(CO)nc12 : reported GI50 = ? > 100 µM (inactive)

Entry COc1c2c(c(OC)c3c1c(=O)c1ccccc1n3C)OCO2 : reported GI50 = ? 25.5 µM (inactive)

Entry COc1ccccc1/C=C/c1cnccn1 : reported GI50 = ? > 10 µM (inactive)

Entry CCc1ccccc1NC(=O)C(=O)CC(=O)c1sc(Nc2ccccc2)nc1C : reported GI50 = ? > 100 µM (inactive)

Entry CCOC(=O)c1ccc(Nc2c3c(nc4ccccc24)CCCC3)cc1 : reported GI50 = ? > 66.2 µM (inactive)

Entry C=CCCCN1CCCC(C)C1=S (stereo unspecified) : reported GI50 = ? > 100 µM (inactive)

Entry CN(C)CC1CCC(CN(C)C)C(=O)C1=O (stereo unspecified) : reported GI50 = ? 24 µM (inactive)

Entry O=[N+]([O-])c1ccc2c(c1)OCCOCCOc1ccc([N+](=O)[O-])cc1OCCOCCO2 : reported GI50 = ? > 100 µM (inactive)

Entry COc1cc(C(=O)O)cc2c1[nH]c1ccccc12 [MUKOEIC ACID] : reported GI50 = ? > 25 µM (inactive)

Entry COc1cc2oc3c(c(=O)c2c(O)c1/C=C/C(C)C)CCC(C)(C)Oc1cc(O)ccc1-3 : reported GI50 = ? 16.7 µM (inactive)

Entry Cc1ccc(/N=N/c2ccc(O)c(CN(C)C)c2)cc1 : reported GI50 = ? 32.7 µM (inactive)

Entry CC1OC(=O)N(CCCC=C2SCCCS2)C1=O (stereo unspecified) : reported GI50 = ? > 100 µM (inactive)

Entry CC[C@]1(Cc2ccc(OC)c(OC)c2)CN(S(=O)(=O)c2ccc(C)cc2)C[C@@H]1OC(C)=O : reported GI50 = ? 64.6 µM (inactive)

###

test system: RXF 393; assay: NCI tumour cell line growth inhibition, 48 h
Calls of active or inactive are those of the source. No stated cut-off is given here; in the data, active = GI50 up to about 1.1 µM and inactive = higher.
Experimental Endpoint: GI50

Entry CC(=O)OC1CCCn2c1nc1c2C(=O)C(C)=C(N2CC2)C1=O (configuration not stated) : reported GI50 = ? 0.284 µM (active)

Entry NC(Cc1ccccc1)C(=O)OCN1C(=O)C2C3C=CC(C2C1=O)C1C2C(=O)N(COC(=O)C(N)Cc4ccccc4)C(=O)C2C31 (configuration not stated) : reported GI50 = ? 22.1 µM (inactive)

Entry C1CSCCCSCCCSCCCSCCCSC1 : reported GI50 = ? 42.9 µM (inactive)

Entry CCO/N=C\c1ccc2oc(-c3ccccc3)cc(=O)c2c1 : reported GI50 = ? 0.261 µM (active)

Entry O=C(/C=C1\Nc2ccc([N+](=O)[O-])cc2N\C1=C/C(=O)c1ccc(F)cc1)c1ccc(F)cc1 : reported GI50 = ? 17.9 µM (inactive)

Entry N[C@@H](CSCSC[C@H](N)C(=O)O)C(=O)O : reported GI50 = ? > 225 µM (inactive)

Entry Cc1cc2c(cc1Cl)SC(NS(=O)(=O)c1ccc(Cl)cc1)=NS2(=O)=O : reported GI50 = ? 13.6 µM (inactive)

Entry O=c1c2cc(I)ccc2nc(SCc2nnco2)n1Cc1ccccc1 : reported GI50 = ? 58.1 µM (inactive)

Entry C=CC(Br)(CBr)CCC(Br)C(C)(C)Cl (configuration not stated) : reported GI50 = ? 2.99 µM (inactive)

Entry ClCc1nc2ccccc2[nH]1 : reported GI50 = ? > 100 µM (inactive)

Entry CSCC(CO)NC(=O)/C=C/c1c(C)[nH]c(=O)[nH]c1=O (configuration not stated) : reported GI50 = ? > 875 µM (inactive)

Entry O=C(N/N=C\c1cccc2ccccc12)Nc1ccc([N+](=O)[O-])cc1 : reported GI50 = ? 7.13 µM (inactive)

Entry NS(=O)(=O)c1ccc(/N=N/c2ccc(O)c(O)c2)cc1 : reported GI50 = ? 17.7 µM (inactive)

Entry COC(=O)c1ccccc1NC(=O)C(=O)NNC(=O)c1ccncc1 : reported GI50 = ? > 100 µM (inactive)

Entry CC(=O)NNc1nc(C)c(C(/C=C/c2ccc(Cl)cc2)=N/NC(=S)NN)s1 : reported GI50 = ? > 100 µM (inactive)

Entry CC1OC(O)CC(OC(=O)c2ccccc2)C1OC(=O)c1ccccc1 (configuration not stated) : reported GI50 = ? 18.8 µM (inactive)

Entry CCCCc1nc(C)oc1C(C)C : reported GI50 = ? > 100 µM (inactive)

Entry [N-]=[N+]=NC(c1cn(C2CC(O)C(CO)O2)c(=O)[nH]c1=O)C(Cl)Br (configuration not stated) : reported GI50 = ? > 100 µM (inactive)

Entry CC(=O)Oc1cc(OC(C)=O)c2c(=O)c3ccccc3n(C)c2c1 : reported GI50 = ? 34 µM (inactive)

Entry COC(=O)/C(=N\NC(N)=S)C(C(=O)OC)C(=O)C(=O)Nc1ccc(C)cc1 (configuration not stated) : reported GI50 = ? > 100 µM (inactive)

Entry O=C1CCC2(O)C3Cc4ccc(Oc5nnnn5-c5ccccc5)c5c4C2(CCN3CC2CC2)C1O5 (configuration not stated) : reported GI50 = ? 39.1 µM (inactive)

Entry CC1=C(C(=O)NCc2ccccc2)C(c2ccccc2C)C(C(=O)NCc2ccccc2)=C(C)N1 : reported GI50 = ? 23.7 µM (inactive)

Entry C[S+]([O-])c1ccc(COP(N)(=O)N(CCCl)CCCl)cc1 (configuration not stated) : reported GI50 = ? > 100 µM (inactive)

Entry BrC12c3ccccc3Sc3ccccc3C1(Br)c1ccccc12 (configuration not stated) : reported GI50 = ? 34.2 µM (inactive)

Entry O=CCCn1[nH]c(=O)ccc1=O : reported GI50 = ? > 100 µM (inactive)

Entry C=CC1(CC/C(=C\[N+](=O)[O-])c2ccc(OC)c(OC)c2)OCC(C)(C)CO1 : reported GI50 = ? 12.9 µM (inactive)

Entry Cc1cc(O)nc(CNC(=O)c2cccc3ccccc23)n1 : reported GI50 = ? > 100 µM (inactive)

Entry CSc1ccc(NC(=O)C2c3[nH]c4ccccc4c3C3CCC(C(C)(C)C)CC3C2C(=O)O)cc1 (configuration not stated) : reported GI50 = ? 20 µM (inactive)

Entry COc1cc2oc3c(c(=O)c2c(O)c1/C=C/C(C)C)CCC(C)(C)Oc1cc(O)ccc1-3 : reported GI50 = ? 11.5 µM (inactive)

Entry O=C(c1ccco1)N(Cc1ccco1)C(=S)Nc1ccccc1 : reported GI50 = ? 16 µM (inactive)

Entry CN(CCNC(=O)c1cc(-c2ccccc2)nc2ccccc12)CCNC(=O)c1cc(-c2ccccc2)nc2ccccc12 : reported GI50 = ? 8.67 µM (inactive)

Entry COc1c(-c2nc3ccc(N4CCN(C)CC4)nc3[nH]2)cc(OC)c2[nH]c(CO)nc12 : reported GI50 = ? > 100 µM (inactive)

Entry CCN(CC)c1cc2c3c(c1)CCCN3CCC2 : reported GI50 = ? > 10 µM (inactive)

Entry CCCN(CCCc1ccccc1)CCc1ccc2[nH]c(=S)[nH]c2c1 : reported GI50 = ? 11.2 µM (inactive)

Entry COc1ccc(/C=C2/C[N+](C)(C)C/C(=C/c3ccc(OC)cc3)C2=O)cc1 : reported GI50 = ? > 100 µM (inactive)

Entry Oc1ccc2c(c1)CCc1c-2n(CCN2CCOCC2)c2ccc(O)cc12 : reported GI50 = ? 30.5 µM (inactive)

Entry COc1cc2nc3c(=C(C#N)C#N)c4ccccc4n3c(=O)c2cc1OC : reported GI50 = ? > 100 µM (inactive)

Entry OCCCCn1cnc2c(O)ncnc21 : reported GI50 = ? > 100 µM (inactive)

Entry Cc1ccc2nc(-c3ccc(N)c(I)c3)sc2c1 : reported GI50 = ? 24 µM (inactive)

Entry O=[N+]([O-])c1ccc2c(c1)OCCOCCOc1ccc([N+](=O)[O-])cc1OCCOCCO2 : reported GI50 = ? > 100 µM (inactive)

Entry O=S(=O)(O)c1ccc2cccc(/N=N\c3c(O)ccc4ccccc34)c2c1 : reported GI50 = ? > 100 µM (inactive)

Entry S=C1SC(=N\c2ccccc2)/C(=N/c2ccccc2)N1c1ccccc1 : reported GI50 = ? > 100 µM (inactive)

Numbers sourced from ChEMBL document CHEMBL1201862.
